Form field: TGI (one value per entry).
# Tested on: OVCAR-8 ovarian
# ASSAY SUMMARY: NCI tumour cell line growth inhibition, 48 h
VALUE KIND: TGI

>>> result("NC(N)=N/N=C/c1c(-c2ccc(Cl)c([N+](=O)[O-])c2)nc2sc(Cl)cn12")
"4.08 µM"
>>> result("COc1ccc(NC(=O)c2cc(OC)cc(OC)c2)cc1")
"> 100 µM"
>>> result("O=C(CSC(=S)N1CCCCC1)Nc1nc2c(s1)CCCC2")
"> 100 µM"
>>> result("CN(C)c1ccc(C2CC(c3ccc4ccccc4c3O)=NN2)cc1 (centres undefined)")
"> 100 µM"

* * *

# Tested on: ACHN renal
# ASSAY SUMMARY: NCI tumour cell line growth inhibition, 48 h
VALUE KIND: TGI

>>> result("CN(CC(=O)N1CC(CCl)c2ccc([N+](=O)[O-])cc21)CC(=O)N1CC(CCl)c2ccc([N+](=O)[O-])cc21 (stereo not given)")
"> 100 µM"
>>> result("COc1cc2nc(-c3ccc(C(F)(F)F)cc3)cc(OCCCN3CCC(O)CC3)c2cc1OC")
"16.7 µM"
>>> result("COC(=O)[C@@H](C)C[C@H](Cc1ccc(F)cc1)NC(=O)c1csc([C@@H](C[C@H](C(C)C)N(C)C(=O)[C@@H](NC(=O)[C@H]2CCCCN2C)C(C)C)OC(C)=O)n1")
"> 16.7 µM"
>>> result("CCCCCCCCSC1=CC(=O)c2nc3ccccc3c3ccnc1c23")
"> 100 µM"
>>> result("Cc1nnc2n1N=C(c1ccccc1)/C(=C/c1ccc(-c3ccc(Cl)cc3)o1)S2")
"26.3 µM"

* * *

Let's look at some compounds and their measured TGI.
# System: PC-3 prostate
# ASSAY SUMMARY: NCI tumour cell line growth inhibition, 48 h
VALUE KIND: TGI

>>> result("Clc1cccc(Cc2cn3cc(-c4ccccc4)nc3s2)c1Cl")
"> 100 µM"
>>> result("N#Cc1cccc2c1Sc1ccccc1N2")
"> 100 µM"
>>> result("COc1cc(NC(C)c2ccc3c(c2)OCCO3)cc(OC)c1OC (stereo not given)")
"> 100 µM"
>>> result("O=c1cc(-c2cccc(O)c2)[nH]c2cc3c(cc12)OCO3")
"> 100 µM"
>>> result("CCCN(CCC)CCc1ccc(OC2=CCN(C)CC2)cc1")
"> 100 µM"

* * *

# Test system: DU-145 prostate
# ASSAY SUMMARY: NCI tumour cell line growth inhibition, 48 h
VALUE KIND: TGI

>>> result("COc1ccc2c(c1)CC[C@@H]1[C@@H]2CC[C@]2(C)C(=O)/C(=C/c3ccc(N(C)C)cc3)C[C@@H]12")
"> 100 µM"
>>> result("O=C(CCl)N1c2ccccc2Oc2ccc3ccccc3c21")
"2.53 µM"
>>> result("CCCCCCCCSC1=CC(=O)c2nc3ccccc3c3ccnc1c23")
"> 100 µM"
>>> result("Cc1cc(=O)n2[nH]c(-c3ccc(C(C)(C)C)cc3)cc2n1")
"75.9 µM"
>>> result("NC(CCCCCCCCCCP(=O)(O)O)C(=O)O (stereo unspecified)")
"> 100 µM"
>>> result("CC(C)=C1C(=O)C[C@]2(C)C[C@H]3O[C@]3(C)CC[C@@H]3O[C@@]3(C)CC[C@@H]12")
"> 50 µM"
>>> result("NC1CCC(Nc2nc(NCc3ccc(-c4ccco4)nc3)c3ncn(C4CCCC4)c3n2)CC1 (stereo unspecified)")
"12.2 µM"
>>> result("Cc1c(-c2ccc(O)cc2)n(CCCCCCNCCOC(=O)NCCCc2ccc(N(CCCl)CCCl)cc2)c2ccc(O)cc12")
"3.97 µM"
>>> result("Nc1ccccc1-c1noc(=O)[nH]1")
"> 100 µM"
>>> result("Cc1cc(=O)[nH]c2cc3oc4ccccc4c3cc12")
"> 100 µM"
>>> result("C=C1C[C@@H]2CC[C@@]34CC5O[C@H]6C(O[C@H]7CC[C@H](CC(=O)O[C@@H]8[C@@H](C)[C@@H]9O[C@@H]%10C[C@]%11(C[C@@H]%12O[C@]%13(C[C@H](C)[C@@H]%14O[C@@H]%15CC(C(O)CO)O[C@@H]%15C[C@@H]%14O%13)C[C@H](C)[C@@H]%12O%11)O[C@@H]%10C[C@@H]9O[C@H]8CC8O[C@@H](CC[C@@H]1O2)C[C@@H](C)C8(O)CO)O[C@@H]7[C@@H]6O3)[C@H]5O4 (stereo partly specified)")
"> 1 µM"
>>> result("COC(=O)Nc1nc2ccc(S(=O)c3ccccc3)cc2[nH]1 (stereo unspecified)")
"> 100 µM"
>>> result("Cc1nnc2n1N=C(c1ccccc1)/C(=C/c1ccc(-c3ccc(Cl)cc3)o1)S2")
"38.9 µM"
>>> result("NS(=O)(=O)c1ccccc1C(=O)N/N=C(\\c1nc2ccc([N+](=O)[O-])cc2[nH]c1=O)C(O)c1ccc([N+](=O)[O-])cc1 (stereo unspecified)")
"> 100 µM"
>>> result("O=C1OCN(c2ccccc2)C12CCN(Cc1ccccc1)CC2")
"> 100 µM"
>>> result("CN(C)CCNc1ccc([N+](=O)[O-])c2sc3ccccc3c(=O)c12")
"31.5 µM"
>>> result("Cc1cc2nc(C(Cl)Cl)nc(-c3ccc(Cl)cc3)n2n1")
"0.827 µM"
>>> result("CSC1=C(C#N)C(=S)N=C(N)C1C(=O)Nc1ccc(C)cc1 (stereo unspecified)")
"> 100 µM"
>>> result("COc1cc(NC(C)c2ccc3c(c2)OCCO3)cc(OC)c1OC (stereo unspecified)")
"> 100 µM"
>>> result("CCCCCCCC(=O)SCC/C=C/[C@@H]1CC(=O)NCc2cccc(n2)C2=N[C@@](C)(CS2)C(=O)N[C@@H](C(C)C)C(=O)N1")
"> 33.3 µM"
>>> result("CN(CC(=O)N1CC(CCl)c2ccc([N+](=O)[O-])cc21)CC(=O)N1CC(CCl)c2ccc([N+](=O)[O-])cc21 (stereo unspecified)")
"> 100 µM"
>>> result("Cc1ccc(Nc2nc(=O)c3c4ccccc4n(C(=O)OC(C)(C)C)c3s2)cc1")
"> 100 µM"
>>> result("CCOC(=O)c1c(SC(=O)c2ccc(C(C)(C)C)cc2)n(-c2ccccc2)c(=S)n(-c2ccccc2)c1=O")
"> 100 µM"
>>> result("O=C1c2cccnc2-c2nc(-c3ccccc3[N+](=O)[O-])cc3c2c1nc1ccccc13")
"33.3 µM"
>>> result("CCCCS(=O)(=O)CCC(N)P(=O)(O)O (stereo unspecified)")
"> 100 µM"
>>> result("COc1cc(/C=C/c2cc(/C=C/c3ccc(O)c(OC)c3)n(C(=O)Nc3ccc(F)cc3)n2)ccc1O")
"11.4 µM"
>>> result("NC(=O)c1ccc(C(=O)Nc2ccc([As](=O)(O)O)cc2)cc1")
"> 100 µM"
>>> result("NC(=O)C(=CNC(N)=S)C(N)=O")
"> 100 µM"
>>> result("NC(N)=Nc1ccc(-c2ccc(N=C(N)N)cc2)cc1")
"> 76.1 µM"
>>> result("O=C1NC(N/N=C/c2ccccc2)=N/C1=C\\c1ccco1")
"> 100 µM"
>>> result("O=C(NC(=S)Nc1ccc(Br)cc1)c1ccc2c(c1)Sc1ccccc1S2")
"32.4 µM"
